# Test system: CCRIS mutagenicity, Ames/micronucleus/aberration tests
# method.notes: CCRIS mutagenicity studies
# test.settings: Test System: AMES SALMONELLA TYPHIMURIUM; Strain/Indicator: TA100; Metabolic Activation: MOUSE, LIVER, S-9, AROCLOR 1254; Method: STANDARD PLATE
Calls of active or inactive are those of the source. How the calls were made is not given here.
Write down the outcome that applies. Available outcomes: active, inactive

Completed entries (count: 3):
{"compound": "CC(Br)C(N)=O (centres undefined)", "category.label": "active"}
{"compound": "O=C(NCc1ccccc1)C(Cl)c1ccccc1 (centres undefined)", "category.label": "inactive"}
{"compound": "CC(C)Cc1ccc(C(C)C(=O)O)cc1 (centres undefined)", "category.label": "inactive"}

Here's the next entry for you.
Prompt: Recorded test outcome, item O=C(NCc1ccccc1)C(Br)c1ccccc1 (centres undefined)
Response: inactive
